Attribution: patent US20240238423A9

Molecular target: Human BCL-XL protein (N-terminal HiBiT tagged BCL-XL in HT1080 cells) (Homo sapiens)
Construct: expressed in transfected cells; host or cells: HT-1080 (ATCC CCL-121), stably transduced with lentivirus pLV-UBC-N-HiBiT-BCL-XL-PGK-puro and selected with puromycin
Sequence (Q07817 whole entry): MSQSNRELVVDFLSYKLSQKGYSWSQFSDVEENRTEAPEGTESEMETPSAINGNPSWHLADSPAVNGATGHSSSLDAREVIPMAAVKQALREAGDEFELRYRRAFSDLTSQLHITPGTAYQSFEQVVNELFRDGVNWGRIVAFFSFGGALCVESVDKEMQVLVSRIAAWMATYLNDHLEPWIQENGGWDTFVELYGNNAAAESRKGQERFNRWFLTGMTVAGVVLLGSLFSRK
Assay: HiBiT based degradation assay
Type: cell-based
Details: BCL-XL degradation; HT1080 cells expressing HiBiT-BCL-XL; 24 h; read-out: EC50 (24 h)
measurement_type: DC50

Lookup: DC50 / Human BCL-XL protein (N-terminal HiBiT tagged BCL-XL in HT1080 cells) (Homo sapiens) / Cc1c(OCCCC2CCN(CC(=O)Nc3cccc4c(C5CCC(=O)NC5=O)nn(C)c34)CC2)cccc1-c1ccc(N2CCc3cccc(C(=O)Nc4nc5ccccc5s4)c3C2)nc1C(=O)O (centres unmarked)
100 to 1000 nM

Lookup: DC50 / Human BCL-XL protein (N-terminal HiBiT tagged BCL-XL in HT1080 cells) (Homo sapiens) / Cc1c(OCCCN2CCN(CC(=O)Nc3cccc4c(C5CCC(=O)NC5=O)nn(C)c34)CC2)cccc1-c1ccc(N2CCc3cccc(C(=O)Nc4nc5ccccc5s4)c3C2)nc1C(=O)O (centres unmarked)
100 to 1000 nM

Lookup: DC50 / Human BCL-XL protein (N-terminal HiBiT tagged BCL-XL in HT1080 cells) (Homo sapiens) / Cc1c(O[C@H]2CC[C@H](CCCN3CCN(c4cccc5c(C6CCC(=O)NC6=O)nn(C)c45)C[C@H]3C)CC2)cccc1-c1ccc(N2CCc3cccc(C(=O)Nc4nc5ccccc5s4)c3C2)nc1C(=O)O (some centres unmarked) [Compound 275a]
< 100 nM

Lookup: DC50 / Human BCL-XL protein (N-terminal HiBiT tagged BCL-XL in HT1080 cells) (Homo sapiens) / Cc1c(OCCCCCCCCN2CCN(c3ccc4c(C5CCC(=O)NC5=O)nn(C)c4c3)CC2)cccc1-c1ccc(N2CCc3cccc(C(=O)Nc4nc5ccccc5s4)c3C2)nc1C(=O)O (centres unmarked)
< 100 nM

Lookup: DC50 / Human BCL-XL protein (N-terminal HiBiT tagged BCL-XL in HT1080 cells) (Homo sapiens) / Cc1c(OCCCC2CCN(CC3CCN(c4ccc5c(C6CCC(=O)NC6=O)nn(C)c5c4)CC3)CC2)cccc1-c1ccc(N2CCc3cccc(C(=O)Nc4nc5ccccc5s4)c3C2)nc1C(=O)O (centres unmarked)
< 100 nM
